PROCEDURE DETAILS: qHTS assay to identify small molecule agonists of H2AX (AID 1224845); further: on the % scale 0 is the no-effect control and ±100 the full control effect
CONDITION DETAILS: CHO-K1 phospho-H2AX Ser139 HTRF, 3 h; series mostly up to 154 µM
Records with an inconclusive call do not appear. Activity calls are given as the source filed them. The call rests on the fitted dose curve; in most records, active means well fitted activation curve with a large enough effect in the signal ratio in the repeat runs (not every such curve was filed as active); inconclusive means weak or mixed curves; inactive means flat fitted curve, though single readings scatter; the % refers to the signal ratio.
Hi there, use one of these labels in your reply, thanks! yes for active, no for inactive

Previously resolved entries follow.
> print(dat)
                                   molecule  category.label
1  CCN1CCC2(CC1)COc1cc3c(cc12)N(C(=O)c1ccc(-c2ccc(-c4nnc(C)o4)cc2C)cc1)CC3              no
2                        [Cl][Hg][c]1ccccc1              no
3  CCC1COC(Cn2cncn2)(c2ccc(Cl)cc2Cl)O1 (stereo not given)              no
4                   O=c1[nH]c(Cl)c(Cl)cc1Cl              no
5  CN1C(=O)[C@@H](NC(=O)c2cc3ccccc3[nH]2)N=C(c2ccccc2)c2ccccc21              no
6                   N#Cc1c2ccccc2cc2ccccc12              no
7  CC(C)=CCN1CC[C@@]2(C)c3cc(O)ccc3C[C@@H]1[C@@H]2C              no
8                               O=Cc1ccccc1              no

Recorded test call requested for CC(C)N(C(=O)SC/C(Cl)=C/Cl)C(C)C no

How did this test come out for COP(=S)(NC(C)C)Oc1ccc(C)cc1[N+](=O)[O-] (stereo not given) ? no

* * *

PROCEDURE DETAILS: qHTS assay to identify small molecule agonists of the endoplasmic reticulum stress response signaling pathway - cell viability counter screen (AID 1159517); further: nearly all actives have a fitted effect of over 50% in size
CONDITION DETAILS: ESRE-bla HeLa viability, CellTiter-Glo luminescence, 5 h; series mostly up to 61 µM
Records with an inconclusive call do not appear. Calls of active or inactive are those of the source. Calls follow the shape of the full dose curve.
Can you answer with just one of these options? T for active, F for inactive

> print(dat)
                  molecule  category.label
1  N#Cc1c2ccccc2cc2ccccc12               F

Look up the recorded call for N#Cc1sc2c(=O)c3ccccc3c(=O)c=2sc1C#N in this test. T

Write down the call the test reported for this molecule. Item: CCN(CC)CCN1C(=O)CN=C(c2ccccc2F)c2cc(Cl)ccc21 F

Which outcome did this test record for the molecule O=C(N[C@H]1N=C(c2ccccc2F)c2cccc3c2N(CC3)C1=O)c1cc2ccccc2[nH]1 ? F

Per the assay record, what outcome was assigned to COc1cnc(OC)n2nc(NS(=O)(=O)c3c(OCC(F)F)cccc3C(F)(F)F)nc12 ? F

Given C[C@@H]1CC2=CC(=O)CC[C@@H]2[C@H]2CC[C@@]3(C)[C@@H](CC[C@]3(C)O)[C@@H]21 , state the outcome it received in this test. F

Please let me know the test result on file for c1ccc2nc(N3CCNCC3)ccc2c1 . F

Short answer needed: outcome of this test for O=[N+]([O-])c1cc(C(F)(F)F)c(Cl)c([N+](=O)[O-])c1Nc1ncc(C(F)(F)F)cc1Cl ? T

Recorded test outcome, item Nc1nc(N)c(N)c(N)n1 F

Dear all, I need the recorded test outcome for O=[N+]([O-])c1ccc(Cl)c(Cl)c1Cl , thank you. F

* * *

PROCEDURE DETAILS: qHTS assay to identify small molecule antagonists of the retinoid acid receptor (RAR) signaling pathway - cell viability counter screen (AID 1159551); further: nearly all actives have a fitted effect of over 35% in size
CONDITION DETAILS: C3RL4 cells viability, ATP luminescence (CellTiter-Glo), 6 h; series mostly up to 92.4 µM
Records with an inconclusive call do not appear. Activity calls are given as the source filed them. Calls come from the whole dose curve; as a rule, active = well fitted cell-killing curve with a large enough effect in the repeat runs; inconclusive = weak or mixed curves, or effect the other way; inactive = flat fitted curve, though single readings scatter.
Your answer must be one of the following: label 1 for active, label 0 for inactive

Sample answers from the record:
> print(dat)
                                   compound  category.label
1  CCCC[N+]1(C)CCCC1 (tested in a mixture with another compound)         label 0
2  O=C(N[C@@H]1N=C(c2ccccc2F)c2cccc3c2N(CC3)C1=O)c1cc2ccccc2[nH]1         label 0

Tell me the assay call for C=C(C)C(=O)[O][Sn]([CH2]CCC)([CH2]CCC)[CH2]CCC please. label 1

Outcome? COC(=O)/C=C(\C)OP(=O)(OC)OC label 0

Record request — test call for O=S(=O)(O)F label 0

Status in this test for CC(Cc1ccc(OCC(=O)O)cc1)NCC(O)c1csc(C(F)(F)F)n1 (stereo unspecified) ? label 0

Please state the recorded outcome for this compound: O=S(=O)(NS(=O)(=O)C(F)(F)F)C(F)(F)F label 0

Short answer needed: outcome of this test for Cc1cccc(Cc2cnc[nH]2)c1C ? label 0

// param item: CCCCON=O ; yields the recorded call label 0

Hello, I am checking results. What call was entered for c1cc[n+]2c(c1)-c1cccc[n+]1CC2 ? label 0

# lookup: test call for O=Cc1ccccc1 label 0

* * *

PROCEDURE DETAILS: qHTS assay to identify small molecule antagonists of the retinoid acid receptor (RAR) signaling pathway - cell viability counter screen (AID 1159551); further: nearly all actives have a fitted effect of over 35% in size
CONDITION DETAILS: C3RL4 cells viability, ATP luminescence (CellTiter-Glo), 6 h; series mostly up to 92.4 µM
Inconclusive results are not listed. Calls of active or inactive are those of the source. Calls follow the shape of the dose curve; as a rule, active = well fitted cell-killing curve with a large enough effect in the repeat runs; inconclusive = weak or mixed curves, or effect the other way; inactive = flat fitted curve, though single readings scatter.
Parameter call: string, one of active, inactive

> print(dat)
                                   molecule  category.label
1  COP(=S)(NC(C)C)Oc1ccc(C)cc1[N+](=O)[O-] (configuration not stated)        inactive

Which outcome was entered for the molecule COP(=O)(OC)Oc1ccc([N+](=O)[O-])cc1 in this test? inactive

Returns: the outcome recorded for CC(O)C(=O)[O][Hg][c]1ccccc1 (configuration not stated) in this assay. active

Hey, what did the test say about COC(=O)c1cc(Oc2ccc(Cl)cc2Cl)ccc1[N+](=O)[O-] ? inactive

// outcome(item) with item = CC(=O)[O-].CC(=O)[O-].[Co+2] inactive

Can you look up the reported call for [O]=[Cr][O][Cr]=[O] for me? inactive

Recorded call for N#CC(C#N)=NNc1cccc(Cl)c1 ? inactive

* * *

PROCEDURE DETAILS: qHTS assay to identify small molecule agonists of H2AX - cell viability counter screen (AID 1224847); further: nearly all actives have a fitted effect of over 30% in size
CONDITION DETAILS: CHO-K1 viability, CellTiter-Glo luminescence, 3 h; series mostly up to 154 µM
Records with an inconclusive call do not appear. Calls of active or inactive are those of the source. Calls come from the whole dose curve.
Pick one: label 1 for active, label 0 for inactive

> print(dat)
                                   compound  category.label
1  CC(Cc1ccc(OCC(=O)O)cc1)NCC(O)c1csc(C(F)(F)F)n1 (configuration not stated)         label 0

Lab log entry: O=NN(CCO)CCO — outcome as called in the assay? label 0

Write down the call the test reported for this compound. Item: CC(=O)[O][Sn]([c]1ccccc1)([c]1ccccc1)[c]1ccccc1 label 1

What did this assay record as the result for ClC1(Cl)C2(Cl)C3(Cl)C4(Cl)C(Cl)(Cl)C5(Cl)C3(Cl)C1(Cl)C5(Cl)C24Cl (configuration not stated) ? label 0

Field: outcome | Entry: S=C=NCCc1ccccc1 label 0

Entry COc1ccc2c(c1OC)C(=O)O[C@@H]2[C@H]1c2cc3c(cc2CCN1C)OCO3 : call = ? label 0

* * *

PROCEDURE DETAILS: qHTS assay for small molecule agonists of the p53 signaling pathway (AID 651631); further: nearly all actives have a fitted effect of over 15% in size
CONDITION DETAILS: HCT-116 p53RE-bla reporter, beta-lactamase FRET ratio, 16 h; series mostly up to 73.3 µM
Records with an inconclusive call do not appear. The source made the active and inactive calls. Calls come from the whole dose curve.
Reply using exactly one outcome from label 1 = active, label 0 = inactive

Hi, do you know how COC(=O)N(OC)c1ccccc1COc1ccn(-c2ccc(Cl)cc2)n1 came out in this test? label 1

Lab log entry: CCC1COC(Cn2cncn2)(c2ccc(Cl)cc2Cl)O1 (stereo not given) — outcome as called in the assay? label 0

I would be grateful if you could indicate the recorded call for Oc1ccc(Cl)c(Cl)c1 . label 0

Entry CC1=C2C[C@H]3[C@@H](CC=C4C[C@@H](O)CC[C@@]43C)[C@@H]2CC[C@]12O[C@@H]1C[C@H](C)CN[C@H]1[C@H]2C : call = ? label 0

Recorded test outcome, item N#Cc1c[nH]cc1-c1cccc2c1OC(F)(F)O2 label 1

Per the records of this test, what outcome belongs to ClC1=C(Cl)[C@]2(Cl)[C@@H]3[C@H]4C[C@H]([C@@H]5O[C@H]45)[C@@H]3[C@@]1(Cl)C2(Cl)Cl ? label 0

What did this assay record as the result for [Cl][Hg][c]1ccccc1 ? label 1

Field: outcome | Entry: O=C(NC(=O)c1ccccc1Cl)Nc1ccc(OC(F)(F)F)cc1 label 0

Assay result, entry CC[C@]1(O)CC[C@H]2[C@@H]3CCC4=CCCC[C@@H]4[C@H]3CC[C@@]21C — outcome? label 1

Identify the outcome logged in this assay for the compound shown: CCCC[N+]1(C)CCCC1 (tested in a mixture with another compound) label 0
